System Tested: 5-HT2AR (Homo sapiens)
Type: binding
Assay Metric: pKi
By convention, pKi is the negative base-10 log of a molar concentration.

In the examples that follow, each entry is paired with its recorded pKi.
> print(dat)
        structure.as.smiles  test.result
1  c1ccc2nc(N3CCNCC3)ccc2c1         4.70
2  c1ccc2cc(N3CCNCC3)ccc2c1         6.14
3  c1ccc2c(N3CCNCC3)cccc2c1         7.00

IN: Param request: pKi | system 5-HT2AR (Homo sapiens) | item c1ccc2c(N3CCNCC3)nccc2c1
OUT: 5.42

* * *

System Tested: UniProt:P28223
Test Description: Intracellular Ca2+ mobilization
Assay Metric: pIC50
In textbook form, pIC50 equals minus log to base ten of the concentration in mol/L.

IN: Entry c1ccc2c(N3CCNCC3)nccc2c1 needs its pIC50 filled in; supply it.
OUT: 4.61

* * *

System Tested: 5-HT2AR (Homo sapiens, UniProt P28223)
Sequence (P28223 whole entry): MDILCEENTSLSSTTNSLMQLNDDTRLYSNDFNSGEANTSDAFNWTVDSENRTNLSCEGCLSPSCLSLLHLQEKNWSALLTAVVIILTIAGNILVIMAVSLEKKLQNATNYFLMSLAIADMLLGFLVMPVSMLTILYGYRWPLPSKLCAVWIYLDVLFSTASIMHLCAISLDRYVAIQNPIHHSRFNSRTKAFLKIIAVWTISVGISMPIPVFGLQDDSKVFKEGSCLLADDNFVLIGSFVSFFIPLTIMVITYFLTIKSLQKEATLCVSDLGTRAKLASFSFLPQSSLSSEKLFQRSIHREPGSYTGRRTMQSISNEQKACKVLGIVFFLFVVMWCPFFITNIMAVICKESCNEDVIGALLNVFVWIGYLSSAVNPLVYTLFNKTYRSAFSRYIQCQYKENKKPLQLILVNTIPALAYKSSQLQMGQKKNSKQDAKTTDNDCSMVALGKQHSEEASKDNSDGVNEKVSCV
Test Description: Intracellular Ca2+ mobilization
Assay Metric: EC50 (µM)
Just the number in µM, nothing appended.

> print(dat)
                                   molecule  test.result
1  c1ccc2nc(N3CCNCC3)ccc2c1 [quipazine, 2-(piperazin-1-yl)quinoline]         7.26

IN: // fetch EC50; item: c1ccc2cc(N3CCNCC3)ccc2c1 [2-NP, 1-(naphthalen-2-yl)piperazine] ; system: 5-HT2AR (Homo sapiens, UniProt P28223)
OUT: 0.15

* * *

System Tested: 5-HT2AR (Homo sapiens, UniProt P28223)
Assay type: binding
Assay Metric: Ki

IN: Find the measured Ki of c1ccc2nc(N3CCNCC3)ccc2c1 and report it.
OUT: 5.13 µM

Data provenance: paper PMC7933111
